Values compiled from patent US8962608B2.

- targetUnderTest: JAK2 (recombinant purified GST-tagged catalytic domain) (Homo sapiens (Human), UniProt O60674)
- Sequence (O60674 849-1124): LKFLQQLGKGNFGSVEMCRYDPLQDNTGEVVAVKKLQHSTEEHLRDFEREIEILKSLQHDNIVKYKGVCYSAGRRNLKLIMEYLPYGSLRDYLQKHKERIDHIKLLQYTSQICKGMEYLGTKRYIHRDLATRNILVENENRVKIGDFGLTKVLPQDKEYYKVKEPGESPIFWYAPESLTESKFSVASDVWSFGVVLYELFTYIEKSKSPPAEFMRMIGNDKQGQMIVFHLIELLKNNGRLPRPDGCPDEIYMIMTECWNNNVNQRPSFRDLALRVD
- procedureSummary: biochemical
measuredAttribute: IC50 (nM)
One number for each entry, in nM.

>  <compound>
N#C[C@H]1C[C@H](O)CC[C@@H]1n1cc(C(N)=O)c(Nc2ccc(C(F)(F)F)c(F)c2)n1 (single isomer, unassigned)

>  <unitString>
nM

>  <IC50>
28

$$$$
>  <compound>
CN(CC(F)F)[C@H]1CC[C@H](n2cc(C(N)=O)c(Nc3ccc(S(=O)(=O)C(F)(F)F)cc3)n2)[C@@H](C#N)C1 (single isomer, unassigned)

>  <unitString>
nM

>  <IC50>
29

$$$$
>  <compound>
N#C[C@H]1C[C@H](N2CCC2)CC[C@@H]1n1cc(C(N)=O)c(Nc2ccc([C@@H](O)C(F)(F)F)cc2)n1 (single isomer, unassigned)

>  <unitString>
nM

>  <IC50>
17

$$$$
>  <compound>
CS(=O)(=O)c1ccc(Nc2nn(C3CCCC[C@@H]3C#N)cc2C(N)=O)cc1F (mixture of isomers)

>  <unitString>
nM

>  <IC50>
10

$$$$
>  <compound>
CN(C)[C@H]1CC[C@@H](n2cc(C(N)=O)c(Nc3ccc(C(F)(F)F)nc3)n2)[C@H](C#N)C1 (single isomer, unassigned)

>  <unitString>
nM

>  <IC50>
800

$$$$
>  <compound>
N#C[C@H]1CCCC[C@@H]1n1cc(C(N)=O)c(Nc2ccc(S(=O)(=O)NCc3cccnc3)cc2)n1 (single isomer, unassigned)

>  <unitString>
nM

>  <IC50>
1

$$$$
>  <compound>
N#C[C@H]1C[C@H](NCC2CC2)CC[C@@H]1n1cc(C(N)=O)c(Nc2ccc(S(=O)(=O)C(F)(F)F)cc2)n1 (single isomer, unassigned)

>  <unitString>
nM

>  <IC50>
24

$$$$
>  <compound>
Cc1cc(Nc2nn([C@H]3CCCC[C@@H]3C#N)cc2C(N)=O)cnc1C#N (single isomer, unassigned)

>  <unitString>
nM

>  <IC50>
18

$$$$
>  <compound>
COCCN(C)[C@H]1CCC(n2cc(C(N)=O)c(Nc3ccc(Cl)cc3)n2)[C@@H](C#N)C1 (single isomer, unassigned)

>  <unitString>
nM

>  <IC50>
20

$$$$
>  <compound>
COC(C)(C)CN[C@H]1CCC(n2cc(C(N)=O)c(Nc3ccc(Cl)cc3)n2)[C@@H](C#N)C1 (single isomer, unassigned)

>  <unitString>
nM

>  <IC50>
48

$$$$

I have 2 compounds here; please give me IC50 for each one.
1. N#C[C@H]1C[C@@H](NC(C2CC2)C2CC2)CC[C@@H]1n1cc(C(N)=O)c(Nc2ccc(S(=O)(=O)C(F)(F)F)cc2)n1 (single isomer, unassigned)
2. N#C[C@H]1CCCC[C@@H]1n1cc(C(N)=O)c(Nc2cnc3ccc(Cl)cc3c2)n1 (single isomer, unassigned)

[39, 23]

----------
- targetUnderTest: JAK2 (recombinant purified GST-tagged catalytic domain) (Homo sapiens (Human));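 further: biochemical JAK kinase assay with HTRF detection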
- procedureSummary: biochemical
pIC50: −log10 of the molar value.
Binning of pIC50 into classes: small value (below 7), mid value (7 to below 8), large value (8 or more)

>  <compound>
N#C[C@H]1C[C@H](NC2CCC2)CC[C@@H]1n1cc(C(N)=O)c(Nc2ccc(C(F)(F)F)cc2)n1 (single isomer, unassigned)

>  <answerLabel>
small value

$$$$
>  <compound>
CN(C1CCC1)[C@H]1CC[C@@H](n2cc(C(N)=O)c(Nc3ccc(C(F)(F)F)cc3)n2)[C@H](C#N)C1 (single isomer, unassigned)

>  <answerLabel>
small value

$$$$
>  <compound>
N#C[C@H]1CCCC[C@@H]1n1cc(C(N)=O)c(Nc2ccc(F)c(Cl)c2)n1 (racemic)

>  <answerLabel>
mid value

$$$$
>  <compound>
N#C[C@@H]1CCCC[C@H]1n1cc(C(N)=O)c(Nc2ccc(S(=O)(=O)C(F)F)cc2)n1 (single isomer, unassigned) [Example 43-6]

>  <answerLabel>
large value

$$$$
>  <compound>
CN(C)[C@H]1CC[C@H](n2cc(C(N)=O)c(Nc3ccc(OC(F)(F)F)cc3)n2)[C@@H](C#N)C1 (single isomer, unassigned)

>  <answerLabel>
mid value

$$$$

Could you tell me which band N#C[C@@H]1CCCC[C@H]1n1cc(C(N)=O)c(Nc2ccc(C(F)F)nc2)n1 (single isomer, unassigned) belongs to? small value

# classify by pIC50 band: N#C[C@H]1C[C@H](O)CCC1n1cc(C(N)=O)c(Nc2ccc(S(=O)(=O)C(F)F)cc2)n1 (mixture of isomers) large value

Sort into band: CC(C)(O)C1CN(C(=O)[C@@H]2CC[C@@H](n3cc(C(N)=O)c(Nc4ccc(Cl)cc4)n3)[C@H](C#N)C2)C1 (single isomer, unassigned) mid value
